Test system: winter wheat variety Dekan
Assay: Foliar application field trial Laacherhof: yield of winter wheat
Type: in vivo
Details: 50 g a.i./ha, sprayed threefold at BBCH 31, 39 and 69, 100EC formulation with adjuvant; untreated control 86.25
Give Grain Yield (dt/ha) for every item shown.
Answers are plain numbers, in dt/ha.

CC(C)c1ccc(Cl)cc1CN(C(=O)c1c(C(F)F)nn(C)c1F)C1CC1
103.1
Cc1ccc(C(C)C)c(CN(C(=O)c2c(C(F)F)nn(C)c2F)C2CC2)c1
94.9
CC(C)c1cccc(F)c1CN(C(=O)c1c(C(F)F)nn(C)c1F)C1CC1
99.9

# context switch: different molecule, same Grain Yield (dt/ha)
QUERY: Query Grain Yield (dt/ha) on winter wheat variety Dekan for "CC(C)c1ccc(F)cc1CN(C(=O)c1c(C(F)F)nn(C)c1F)C1CC1"
RESULT: 99.4
